The following molecules are shown together with reported EC50 values.
target: 17β-HSD10 (Homo sapiens); construct: Histev (histidine tag with TEV site) (N, cleaved yes); assay: 17β-HSD10 (ABAD) enzyme inhibition assay, NADH oxidation read at 340 nm (primary screen and dose response); settings: recombinant 17βHSD10 enzyme assay
Sequence (Q99714 whole entry): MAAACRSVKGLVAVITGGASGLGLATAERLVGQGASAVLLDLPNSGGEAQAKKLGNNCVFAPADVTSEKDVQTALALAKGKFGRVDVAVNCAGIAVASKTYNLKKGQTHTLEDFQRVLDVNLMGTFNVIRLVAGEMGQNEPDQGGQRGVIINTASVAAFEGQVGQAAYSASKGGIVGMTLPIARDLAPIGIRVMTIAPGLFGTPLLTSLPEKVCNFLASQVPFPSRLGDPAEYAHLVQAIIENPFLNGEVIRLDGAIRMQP
The reply should contain only the number, in µM.

Worked cases, EC50 given:
* O=C(c1sccc1Cl)N1CCC[C@H]1c1ccccc1-c1cccc(O)c1 (single isomer, unassigned) [ESC1002755] | 0.02
* COc1cccc(-c2ccccc2[C@@H]2CCCN2C(=O)c2cn[nH]c2)c1 (racemic) [ESC1002601] | 6.31
* CC(C)CN(C(=O)C(C)C)c1cccc(N(C)Cc2cnc[nH]2)c1 [ESC1002165] | 1.66
* O=C(c1sccc1Cl)N1CCC[C@H]1c1ccccc1-c1cc(O)cc(F)c1 (single isomer, unassigned) [ESC1002801] | 0.0513
* CC(C)CN(C(=O)c1ccc(C(F)(F)F)cc1F)c1cccc(N(C)Cc2c[nH]cn2)c1 [ESC1002455] | 1.26
* COc1cc(-c2ccccc2[C@@H]2CCCN2C(=O)c2sccc2Cl)ccc1F (racemic) [ESC1002699] | 0.263

// next item, EC50 requested
Prompt line: State the recorded EC50 for this entry: O=C(c1sccc1Cl)N1CCC[C@H]1c1ccccc1-c1cc(O)ccc1F (single isomer, unassigned) [ESC1002843]
Response line: 10.7
